Listed here: items and their measured pIC50.
STUDY SYSTEM: UniProt:P48426
Sequence (P48426 whole entry): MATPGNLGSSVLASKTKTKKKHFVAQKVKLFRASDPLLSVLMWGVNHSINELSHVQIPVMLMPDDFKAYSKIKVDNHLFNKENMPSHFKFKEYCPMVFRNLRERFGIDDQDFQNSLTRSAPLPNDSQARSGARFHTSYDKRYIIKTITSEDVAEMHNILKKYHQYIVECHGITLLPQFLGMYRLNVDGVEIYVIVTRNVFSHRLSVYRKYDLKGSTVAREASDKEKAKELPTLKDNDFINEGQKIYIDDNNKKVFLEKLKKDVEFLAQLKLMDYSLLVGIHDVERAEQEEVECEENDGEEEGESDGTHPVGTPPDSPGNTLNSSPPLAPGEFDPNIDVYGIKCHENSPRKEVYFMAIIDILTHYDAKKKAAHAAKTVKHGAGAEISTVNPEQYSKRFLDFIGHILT
MEASUREMENT DESCRIPTION: ADP-glo kinase assay PIP4K 2A
Assay type: biochemical
Set-up: 4 nM PIP4K2A (full length protein, SignalChem); purchased SignalChem
APPLIED CONDITIONS: compounds listed under IC50 bin headings
pIC50: −log10 of the molar value.
QUANTITY KIND: pIC50

compound="CC1Oc2cc(N3CCCC3=O)ccc2-c2cnc(Nc3cncc(F)c3)cc21 (centres unmarked)" study_system=UniProt:P48426 quantity_kind=pIC50 result="7.00 to 8.00"
compound="CC1Oc2cc(N3CCCC3=O)ccc2-c2cnc(Nc3cnc4c(c3)NCCO4)cc21 (centres unmarked)" study_system=UniProt:P48426 quantity_kind=pIC50 result="8.00 to 9.00"
compound="CN(C)C(=O)c1ccc2c(c1)OC(C1CC1)c1cc(Nc3cncc(N4CCCC4=O)c3)ncc1-2 (centres unmarked)" study_system=UniProt:P48426 quantity_kind=pIC50 result="8.00 to 9.00"
compound="CC1Oc2cc(N3CCCC3=O)ccc2-c2cnc(Nc3cnc4ccn(S(C)(=O)=O)c4c3)cc21 (centres unmarked)" study_system=UniProt:P48426 quantity_kind=pIC50 result="8.00 to 9.00"
compound=O=C1CCCN1c1ccc2c(c1)OCc1cc(Nc3cnc4c(c3)OCCO4)ncc1-2 study_system=UniProt:P48426 quantity_kind=pIC50 result="8.00 to 9.00"
compound="CC1c2cc(Nc3cnc4c(c3)OCCO4)ncc2-c2ccc(N3CCCC3=O)cc2N1C (centres unmarked)" study_system=UniProt:P48426 quantity_kind=pIC50 result="7.00 to 8.00"
compound="CC1Oc2cc(N3CCCC3=O)ccc2-c2cnc(Nc3cncc(NC(=O)c4ccncc4)c3)cc21 (centres unmarked)" study_system=UniProt:P48426 quantity_kind=pIC50 result="8.00 to 9.00"
compound="CC1Oc2cc(N3CCCC3=O)ccc2-c2cnc(Nc3cnc4c(c3)N3C(=O)C5(CC5)C[C@H]3CO4)cc21 (some centres unmarked)" study_system=UniProt:P48426 quantity_kind=pIC50 result="≥ 9.00"

Hey, just so you know, these numbers are from patent US11584763B2.
